These data points were gathered from PubChem BioAssay AID686964.

Entries annotated with measured inhibition
- target_system: Methyl-CpG-binding domain protein 2 (Homo sapiens) (UniProt Q9UBB5)
- Sequence (Q9UBB5 whole entry, looked up, the tested form may be a part): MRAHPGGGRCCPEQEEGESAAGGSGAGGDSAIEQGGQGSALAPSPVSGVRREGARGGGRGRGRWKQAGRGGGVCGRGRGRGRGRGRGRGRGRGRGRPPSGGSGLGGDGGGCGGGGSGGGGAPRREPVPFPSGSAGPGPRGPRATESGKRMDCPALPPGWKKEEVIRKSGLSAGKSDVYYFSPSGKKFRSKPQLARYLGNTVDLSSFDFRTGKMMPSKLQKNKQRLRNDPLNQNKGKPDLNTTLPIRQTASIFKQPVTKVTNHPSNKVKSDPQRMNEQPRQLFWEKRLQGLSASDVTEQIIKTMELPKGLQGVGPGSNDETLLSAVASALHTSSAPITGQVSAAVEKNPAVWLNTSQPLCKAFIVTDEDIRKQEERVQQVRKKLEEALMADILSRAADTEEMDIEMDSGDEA
- protocol: inhibitors of MBD2 binding to methylated DNA, primary screen, biochemical, TR-FRET, DNA-binding domain, human (AID 686964)
- setup_conditions: MBD2 binding to methylated oligonucleotide, at 4.4 µM, active compounds read high
The campaign covered roughly 370,000 compounds. About 1,100 (0.3%) were called active. This is one part of a sample in which actives are shown more often than they occur.

Below: 2 compounds and their reported inhibition.
compound	target_system	inhibition
O=C1NC(=O)N(Cc2ccco2)C(=O)/C1=C\c1ccc(-c2ccc(F)cc2)o1	Methyl-CpG-binding domain protein 2 (Homo sapiens) (UniProt Q9UBB5)	31.9% (active)
CO[C@H]([C@H](C)/C=C/N(C)C=O)[C@@H](C)C(=O)CC[C@H](C)[C@H](O)[C@H](C)[C@H]1OC(=O)/C=C/C(C)=C/[C@H](O)[C@H](OC)C[C@@H]2C=CC[C@@H](C[C@H](OC)[C@@]3(CO3)[C@@H](OC)C[C@@H](OC)[C@@H]1C)O2	Methyl-CpG-binding domain protein 2 (Homo sapiens) (UniProt Q9UBB5)	3.68% (inactive)

As a next step, examine the compound that follows.
Please look up its inhibition: `Cc1ccccc1CCC[C@@H](CC1CCCCC1)CN(C)C(=O)Oc1ccccc1`
-0.69% (inactive)

* * *

- target_system: Methyl-CpG-binding domain protein 2 (Homo sapiens) (UniProt Q9UBB5)
- protocol: inhibitors of MBD2 binding to methylated DNA, primary screen, biochemical, TR-FRET, DNA-binding domain, human (AID 686964)
- setup_conditions: MBD2 binding to methylated oligonucleotide, at 4.4 µM, active compounds read high
The whole screen tested about 370,000 compounds, of which about 1,100 (0.3%) were called active. The full list was thinned out, with actives kept by preference.
Entries annotated with measured inhibition
Please state the figure in %; there is no need to write the unit.

Below: 4 compounds and their reported inhibition.
> print(dat)
                                   compound                             target.system  endpoint.name  numeric.value
1  Cc1cc(/C=C2/C(=O)NC(=O)N(Cc3ccco3)C2=O)c(C)n1-c1ccc(C(=O)O)cc1  Methyl-CpG-binding domain protein 2 (Homo sapiens) (UniProt Q9UBB5)     inhibition           23.8
2  COP(=O)(Sc1ccccc1)C(Cc1ccccc1)NC(=O)OCc1ccccc1 (stereo not given)  Methyl-CpG-binding domain protein 2 (Homo sapiens) (UniProt Q9UBB5)     inhibition           1.01
3  Cc1ccnc(-n2c(C)cc(/C=C3\C(=O)NC(=S)N(C)C3=O)c2C)c1  Methyl-CpG-binding domain protein 2 (Homo sapiens) (UniProt Q9UBB5)     inhibition          -7.85
4  O=C(O)C1CSC(c2cccnc2)N1 (stereo not given)  Methyl-CpG-binding domain protein 2 (Homo sapiens) (UniProt Q9UBB5)     inhibition          -2.74

As a next step, examine the compound that follows.
Please look up its inhibition: `CC(C)c1ccc(-n2c(O)c(/C=N/N3CCOCC3)c(=O)[nH]c2=S)cc1`
-0.85
